Just for reference, ChEMBL document CHEMBL4689842 is where these values come from.

System: Fibroblast
Test: Incucyte cell viability with human fibroblast; note: filed as whole numbers so only -1 and 0 and 1 occur
Format: toxicity, cell-based
Conditions: 6 h, 10 µM, compound concentration 10 uM, replicate number 1, timepoint 6 hours
measurement_name: Growth Rate

See these solved cases before continuing.
> print(dat)
                                   molecule  study.system  test.value
1  CC(C)C(=O)Nc1n[nH]c2cc(-c3cccc(NS(=O)(=O)C4CC4)c3)ccc12    Fibroblast           0
2  CCn1c(=O)c(-c2ccc(Cl)cc2Cl)cc2cnc(Nc3ccc(N4CCNCC4)c(F)c3)nc21    Fibroblast           0

Exercise: I am curious: what Growth Rate value has been reported for O=S(=O)(c1ccccc1)N(CC(F)(F)F)c1ccc(C(O)(C(F)(F)F)C(F)(F)F)cc1 [T091317] ?
Key: 0

Exercise: Which measured Growth Rate value corresponds to Cn1cc(C2=C(c3cn(C4CCN(Cc5ccccn5)CC4)c4ccccc34)C(=O)NC2=O)c2ccccc21 [ENZASTAURIN] ?
Key: 0

Exercise: Entry CC1=C(C#N)C(c2ccc3[nH]nc(C)c3c2)C(C#N)=C(C)N1 [BAY-474] : reported Growth Rate = ?
Key: 0
